# test target: hNaV1.7 (Homo sapiens, UniProt Q15858)
# Construct: expressed in transfected cells
# Sequence (Q15858 1-1977 isoform Q15858-3): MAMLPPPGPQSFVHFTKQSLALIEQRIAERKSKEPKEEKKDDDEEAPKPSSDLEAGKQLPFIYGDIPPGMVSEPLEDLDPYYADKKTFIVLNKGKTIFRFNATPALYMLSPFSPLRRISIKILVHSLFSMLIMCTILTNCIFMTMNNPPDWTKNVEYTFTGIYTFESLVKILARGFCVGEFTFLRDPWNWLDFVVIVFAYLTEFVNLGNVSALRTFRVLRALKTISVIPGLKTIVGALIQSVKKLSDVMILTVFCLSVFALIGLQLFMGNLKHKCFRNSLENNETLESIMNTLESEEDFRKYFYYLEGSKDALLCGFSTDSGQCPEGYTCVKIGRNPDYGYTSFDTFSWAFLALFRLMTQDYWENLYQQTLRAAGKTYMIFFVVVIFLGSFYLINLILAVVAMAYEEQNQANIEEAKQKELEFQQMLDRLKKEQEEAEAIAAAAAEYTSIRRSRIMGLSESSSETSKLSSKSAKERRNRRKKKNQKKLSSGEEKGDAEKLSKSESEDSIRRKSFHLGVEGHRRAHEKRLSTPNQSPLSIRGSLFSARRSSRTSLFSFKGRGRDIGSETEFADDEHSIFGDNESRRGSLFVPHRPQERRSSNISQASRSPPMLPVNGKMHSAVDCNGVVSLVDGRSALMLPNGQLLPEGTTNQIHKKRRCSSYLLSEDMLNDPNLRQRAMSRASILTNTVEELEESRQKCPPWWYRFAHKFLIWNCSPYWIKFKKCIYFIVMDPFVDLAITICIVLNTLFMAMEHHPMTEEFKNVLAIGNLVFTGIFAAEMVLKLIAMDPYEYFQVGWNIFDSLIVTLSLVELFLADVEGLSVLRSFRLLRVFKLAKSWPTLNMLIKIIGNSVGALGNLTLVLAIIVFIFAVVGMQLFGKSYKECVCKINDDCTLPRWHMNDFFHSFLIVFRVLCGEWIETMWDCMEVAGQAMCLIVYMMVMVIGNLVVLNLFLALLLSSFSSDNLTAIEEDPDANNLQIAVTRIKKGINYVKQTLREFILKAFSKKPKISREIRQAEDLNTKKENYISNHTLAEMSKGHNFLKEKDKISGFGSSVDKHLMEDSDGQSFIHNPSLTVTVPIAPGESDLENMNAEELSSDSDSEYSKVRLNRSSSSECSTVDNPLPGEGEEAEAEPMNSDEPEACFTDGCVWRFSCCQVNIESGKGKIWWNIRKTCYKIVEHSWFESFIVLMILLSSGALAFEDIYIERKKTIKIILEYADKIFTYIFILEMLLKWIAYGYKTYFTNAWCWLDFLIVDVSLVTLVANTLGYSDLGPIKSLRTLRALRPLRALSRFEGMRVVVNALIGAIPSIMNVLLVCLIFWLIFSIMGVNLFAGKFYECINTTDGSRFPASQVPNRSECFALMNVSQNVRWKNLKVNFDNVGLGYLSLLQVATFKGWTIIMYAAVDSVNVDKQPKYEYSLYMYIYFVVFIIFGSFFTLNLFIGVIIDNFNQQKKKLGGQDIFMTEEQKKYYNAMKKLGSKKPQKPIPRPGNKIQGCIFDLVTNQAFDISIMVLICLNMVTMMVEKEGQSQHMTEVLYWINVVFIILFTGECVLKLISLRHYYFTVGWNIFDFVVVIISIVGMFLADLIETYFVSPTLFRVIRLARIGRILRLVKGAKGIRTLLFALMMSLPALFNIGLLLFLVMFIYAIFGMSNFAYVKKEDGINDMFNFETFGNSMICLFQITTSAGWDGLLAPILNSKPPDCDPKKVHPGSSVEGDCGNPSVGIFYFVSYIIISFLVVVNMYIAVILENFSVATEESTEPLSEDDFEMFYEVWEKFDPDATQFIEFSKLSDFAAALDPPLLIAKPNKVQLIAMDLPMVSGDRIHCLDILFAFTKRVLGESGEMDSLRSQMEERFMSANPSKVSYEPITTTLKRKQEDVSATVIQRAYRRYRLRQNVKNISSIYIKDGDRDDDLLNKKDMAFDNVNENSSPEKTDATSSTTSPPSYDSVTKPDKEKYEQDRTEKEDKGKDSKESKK
# protocol: Patch voltage clamp electrophysiology (EP), Syncropatch 384PE, Nav1.7 in CHO cells;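 note: Nav1.7 stably expressed from cDNA in CHO cells, holding potential of −50 mV kept for the entire experiment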
# Format: cell-based
# test context: holding potential −50 mV, inhibition based on 7.5 min compound incubation, read-out: hNaV1.7 EP_SP

{"molecule": "O=C(NS(=O)(=O)N1CC[C@H]2CCC[C@@H]21)c1cc(Cl)c(OCC2CCCC2)cc1F (single isomer, unassigned)", "IC50": "16 nM"}
{"molecule": "O=C(NS(=O)(=O)c1ccccc1)c1cc(Cl)c(OCC2CCCC2)cc1F", "IC50": "100 nM"}
{"molecule": "O=S(=O)(Nc1noc2cc(OCC3CCCC3)c(C3CC3)cc12)N1CCC(O[C@H]2CCNC2)CC1 (single isomer, unassigned) [Example 92, 2,2,2-trifluoroacetate]", "IC50": "69 nM"}
{"molecule": "CN(C)C1CCN(S(=O)(=O)NC(=O)c2cc(Cl)c(OCC3CCCC3)cc2F)CC1", "IC50": "1000 nM"}
{"molecule": "C[C@H]1C[C@@H]1S(=O)(=O)NC(=O)c1cc(Cl)c(OCC2CCCC2)cc1F (single isomer, unassigned)", "IC50": "9.8 nM"}
{"molecule": "O=C(NS(=O)(=O)c1ccc(OCc2ccncc2)cc1)c1cc(Cl)c(OCC2CCCC2)cc1F", "IC50": "16 nM"}
{"molecule": "O=C(NS(=O)(=O)c1ccccc1F)c1cc(Cl)c(OCC2CCCC2)cc1F", "IC50": "65 nM"}

These measurements were taken from patent US20240228463A1.
